The reported measurements were obtained from patent US20180353460A1.

- Tested on: prostate, seminal vesicles and levator ani muscle
- test: Androgenic and anabolic activity in intact male rats, daily oral gavage
- Type: in vivo, rat
- reported conditions: 0.01 mg/day
observed property: prostate weight

Some solved entries appear below for comparison.
# input smiles, prostate weight
records = [
    ("C[C@](O)(COc1ccc(C#N)cc1)C(=O)Nc1ccc(C#N)c(C(F)(F)F)c1", "111%±21%"),
    ("C[C@](O)(COc1ccc(Cl)c(F)c1)C(=O)Nc1ccc(C#N)c(C(F)(F)F)c1", "117%±20%"),
]

q: What measured prostate weight goes with C[C@](O)(COc1ccc(C#N)cc1)C(=O)Nc1ccc(C#N)c(Cl)c1 ?
a: 103%±10%

q: Next up: C[C@](O)(COc1ccc(C#N)c(F)c1)C(=O)Nc1ccc(C#N)c(C(F)(F)F)c1
a: 98%±21%

* * *

- System: prostate, seminal vesicles and levator ani muscle
- test: Androgenic and anabolic activity in intact male rats, daily oral gavage
- Type: in vivo, rat
- reported conditions: 0.3 mg/day
observed property: prostate weight

# molecule, system tested, recorded value
data = [
    ("C[C@](O)(COc1ccc(C#N)cc1)C(=O)Nc1ccc(C#N)c(C(F)(F)F)c1 [Compound IX]", "prostate, seminal vesicles and levator ani muscle", "71%±16%"),
    ("C[C@](O)(COc1ccc(C#N)c(F)c1)C(=O)Nc1ccc(C#N)c(C(F)(F)F)c1 [XIII]", "prostate, seminal vesicles and levator ani muscle", "98%±22%"),
    ("C[C@](O)(COc1ccc(C#N)cc1)C(=O)Nc1ccc(C#N)c(Cl)c1 [VIII]", "prostate, seminal vesicles and levator ani muscle", "58%±15%"),
]

The record that follows has no prostate weight shown yet.
q: Notebook entry, prostate, seminal vesicles and levator ani muscle assay: prostate weight of C[C@](O)(COc1ccc(Cl)c(F)c1)C(=O)Nc1ccc(C#N)c(C(F)(F)F)c1 [XIV] = ?
a: 62%±5%

* * *

- test: Serum drug concentration by LC-MS/MS in ovariectomized mice
- Format: in vivo
- reported conditions: female, mouse, oral, 2.5 mpk p.o., 28 days
observed property: concentration at 24 h after the last dose

q: What does the data say about its concentration at 24 h after the last dose? Entry: C[C@](O)(COc1ccc(C#N)cc1)C(=O)Nc1ccc(C#N)c(Cl)c1
a: 2.44 µM

q: What do you have for C[C@](O)(COc1ccc(C#N)cc1)C(=O)Nc1ccc(C#N)c(C(F)(F)F)c1 ?
a: 3.85 µM

* * *

- Test system: prostate, seminal vesicles and levator ani muscle
- test: Androgenic and anabolic activity in intact male rats, daily oral gavage
- Type: in vivo, rat
- reported conditions: 1 mg/day
levator ani muscle weight values for the molecules below.

# molecule, levator ani muscle weight
measured = [
    ("C[C@](O)(COc1ccc(C#N)c(F)c1)C(=O)Nc1ccc(C#N)c(C(F)(F)F)c1 [XIII]", "147%±10%"),
]

q: Record request: levator ani muscle weight value, item C[C@](O)(COc1ccc(Cl)c(F)c1)C(=O)Nc1ccc(C#N)c(C(F)(F)F)c1 [XIV]
a: 129%±10%

q: And for C[C@](O)(COc1ccc(C#N)cc1)C(=O)Nc1ccc(C#N)c(C(F)(F)F)c1 [Compound IX] ?
a: 146%±17%

q: Lookup C[C@](O)(COc1ccc(C#N)cc1)C(=O)Nc1ccc(C#N)c(Cl)c1 [VIII]
a: 118%±7%
